Where do the numbers come from? From PubChem BioAssay (Tox21).

Test: qHTS assay for small molecule activators of the heat shock response signaling pathway - cell viability counter screen (AID 743209); further: nearly all actives have a fitted effect of over 50% in size
Conditions: HSE-bla HeLa viability, CellTiter-Glo luminescence, 5 h; series mostly up to 62.6 µM
Inconclusive results are not listed. Activity calls are given as the source filed them. The call rests on the fitted dose curve; in most records, active means well fitted cell-killing curve with a large enough effect in the repeat runs; inconclusive means weak or mixed curves, or effect the other way; inactive means no such curve, though single readings can be large or run the other way.
Your answer must be one of the following: TRUE for active, FALSE for inactive

Look over these answered cases.
[
  {
    "Molecule": "CCSCC",
    "Assigned label": "FALSE"
  },
  {
    "Molecule": "Cc1cc(Br)ccc1NC(=O)CCl",
    "Assigned label": "TRUE"
  },
  {
    "Molecule": "CN1CCN(CCCN2c3ccccc3Sc3ccc(C(F)(F)F)cc32)CC1",
    "Assigned label": "TRUE"
  },
  {
    "Molecule": "CN1CCN(c2ccccc2/C=C2\\SCCN(c3ccc(Cl)c(Cl)c3)C2=O)CC1",
    "Assigned label": "TRUE"
  },
  {
    "Molecule": "CN(C/C=C/c1ccccc1)Cc1cccc2ccccc12",
    "Assigned label": "FALSE"
  },
  {
    "Molecule": "O=C(CCCCCCCCc1cccnc1)N1CCC(C=C(c2ccccc2)c2ccccc2)CC1",
    "Assigned label": "FALSE"
  },
  {
    "Molecule": "Cc1ccc2nc(-c3ccc(N)cc3)sc2c1S(=O)(=O)O",
    "Assigned label": "FALSE"
  },
  {
    "Molecule": "CCCCCCCCCCCCCCCCC(C(=O)O)C(O)(CC(=O)O)C(=O)O (stereo not drawn)",
    "Assigned label": "TRUE"
  }
]

In this assay, the call recorded for O=C(CCN1CCC(c2ccccc2)C1)c1ccc2c(c1)OCCO2 (stereo not drawn) was what?
TRUE

In this assay, the call recorded for CCCCCN=C(N)N/N=C/c1c[nH]c2ccc(OC)cc12 was what?
TRUE

In this assay, the call recorded for C=C1C(CCl)(CCl)C2(Cl)C(Cl)C(Cl)C1(Cl)C2(Cl)Cl (stereo not drawn) was what?
TRUE

In this assay, the call recorded for CN[C@H]1CC[C@@H](c2ccc(Cl)c(Cl)c2)c2ccc(S(N)(=O)=O)cc21 was what?
FALSE

In this assay, the call recorded for Oc1ccc(Cl)cc1C1CCCC1 was what?
FALSE
